- target_or_test_system: SARS-CoV-2 S2 protein (SARS-CoV-2, UniProt P0DTC2 686-1213)
readout_type: koff
Give the figure together with its unit, number first.

Examples with answers:
{"columns": ["binder", "koff"],
 "data": [
  ["AB-009710 (antibody, V domains shown) VH: LVQLIQSGAEVVKPGSSVKVSCTASGGSYSSYTLSWVRQAPGQGVEWLGRISPVLNTTYYAQKLEGRVTMTADESTSTVYMQLSSLRSEDTAVYYCARLASMNGVDIWGQGTSVTVSS VL: EIVLTQSPGTLSLSPGERATLSCRASQSVYGSYLAWYQQKPGQAPRLLIYGGSSRATGIPDRFSGSGSGTDFTLTISRLEPEDFAVYYCHQYGTSRYSFGQGTKLDIK", "0.000591 s⁻¹"],
  ["AB-009273 (antibody, V domains shown) VH: QVQLVQSGAEVKKPGSSVKVSCKASGGTFSSYAISWVRQAPGQGLEWMGGIIPIFGTANYAQKFQGRVTITTDESTSTAYMELSSLRSEDTAVYYCARVGVYDSSGYYFDYWGQGTLVTVSS VL: EIVLTQSPATLSLSPGERATLSCRASQSVSSYLAWYQQKPGQAPRLLIYDASNRATGIPARFSGSGSGTDFTLTISSLEPEDFAVYYCQQRSNWPPRLTFGGGTKVEIK", "0.000148 s⁻¹"]
]}

Next:
Sample AB-009676 (antibody, V domains shown) VH: QVQLQQWGAGLLKPSETLSLTCAVYGGSFSGYYWSWIRQPPGKGLEWIGEINHSGSTNYNPSLKSRVTISVDTSKNQFSLKLSSVTAADTAVYYCARLSRQWLVRPHIYYFDYWGQGTLVTVSS VL: DIQMTQSPSTLSASVGDRVTITCRASQSVSSYLNWYQQKPGKAPKLLIYAASSLQSGVPSRFSGSGSGTDFTLTISSLQPEDFATYFCQQSYSTPRTFGQGTKLEIK ; koff observed: 3.12e-07 s⁻¹

Origin of measurements: patent US20240327505A1
